Exercise: state measured composite z-score for each of the molecules provided.
Target: Calmodulin-1 (Homo sapiens)
Experiment: CALM1 binders on microarrays, EGTA buffer, profiling panel, biochemical, small-molecule microarray, Cy5-labelled CALM1 (AID 1111);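 further: labelled calmodulin applied in Tris saline Tween buffer holding calcium plus EGTA and DTT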
Details: Cy5-CALM1 binding fluorescence, higher = more signal
One number for each entry.

What value of measured composite z-score is listed for CCOC(=O)[C@H](Cc1ccccc1)NC(=O)CCC1CC(OC(=O)NCc2ccc3c(c2)OCO3)CC2(CCCC(COC(=O)NCC3CCCCC3)O2)O1 (some centres not stated) ? 0.433

Hi! Can you tell me composite z-score for each of these molecules?
1. O=C1[C@H]2[C@H]3[C@H](O)[C@H](O)CC(=NOC[C@@H](O)COCc4ccco4)[C@H]3CC[C@H]2C(=O)N1C1CCCCC1
2. CO[C@H]1O[C@H](CO)[C@@H](OC(=O)Nc2ccc(C#N)cc2)[C@H](OC(=O)c2cc3ccccc3[nH]2)[C@H]1OC(=O)c1cc2ccccc2[nH]1

1. -1.04
2. 2.07

Hi! Can you tell me composite z-score for each of these molecules?
1. C[C@@H](c1ccccc1)N1C(=O)[C@H]2[C@H]3[C@H](O)[C@H](O)CC(=NNC(=O)OCc4ccccc4)[C@H]3CC[C@H]2C1=O
2. C[C@H](c1ccccc1)N1C(=O)[C@H]2[C@@H]3C(=CC[C@H]2C1=O)C(=O)[C@H]1O[C@H]1[C@H]3O
3. CC(=O)OC[C@H]1O[C@H](CC=NOC[C@@H](C)[C@H](OCc2ccccc2)C(C)C)C=C[C@@H]1OC(C)=O

1. 0.12
2. -0.119
3. -0.47

What value of composite z-score has been recorded for this entry: `C#CCCCON=C1C[C@@H](O)[C@@H](O)[C@@H]2[C@@H]3C(=O)N(Cc4ccccc4)C(=O)[C@@H]3CC[C@H]12` -0.0441
